Where do the numbers come from? From the supplement of paper PMC9170038.

// reported apparent KD of MS2 coat protein for each item listed
- System: MS2 coat protein
- ASSAY NOTES: apparent KD of MS2 coat protein; designed switch direction (-1 OFF switch, 1 ON switch): -1; higher = weaker reporter binding
- RUN CONDITIONS: input ligand: FMN 200 uM
Write the number in nM without appending the unit.

SEQUENCE INPUT	READOUT UNIT	apparent KD of MS2 coat protein
AGUACUAACACGAGAGUGUUAGUACUAUAAGCUUGUGAAACAUGAGGAUCACCCAUGUCCUCAUAAGCUCGUCUUAU [Mat - Sensor v3 - Turn-off var 2 - D103] (Eterna round: R96, puzzle: Sensor v3, turn-off variant 2)	nM	13.8
AGUAACUCAAGAGGAUAUCACAUGAGGAUCACCCAUGUAUAGCGCGCUACGCUAGUCCUCGUAUUUGAGAAGGUUUGAUAAAUG [Quve] (Eterna round: R96, puzzle: Exclusion NG 2)	nM	10.4

Request: What value of apparent KD of MS2 coat protein has been recorded for this entry: AGACGUUAACAGGAUAUGGCCCUGCCGCAAGCGUUAGAAGGGUUGACAUGAGGAUCACCCAUGUGUGAUAGAAG [Eternabot (L1) Solution 95] (Eterna round: R97, puzzle: Exclusion 6)
Response: 217

Request: What value of apparent KD of MS2 coat protein has been recorded for this entry: CCGGCUUAGGAGGAUAUAGGAGUCGAAAGACACCUAGAAGGCCUAACAUGAGGAUCACCCAUGUGUCCUACCGG [Mod of Eli 6 - Jieux - Exclusion 6] (Eterna round: R97, puzzle: Exclusion 6)
Response: 78.4

----------
- Test system: MS2 coat protein
- ASSAY NOTES: apparent KD of MS2 coat protein; designed switch direction (-1 OFF switch, 1 ON switch): -1; higher = weaker reporter binding
- RUN CONDITIONS: Eterna round: R95; input ligand: FMN 200 uM
OBSERVATION TYPE: apparent KD of MS2 coat protein (nM)
Write the number in nM without appending the unit.

Recorded results for 2 sequences are shown here.
In [3]: df
Out[3]:
                             sequence_input                 observation_type  observed
0  GGAGAGGGAGGAUAUGCGCCAACAAACAUGAGGAUCACCCAUGUGGUGCUCCAAGAAAGGGUAGAAGGCCCUCUCC [Default title] (puzzle: Exclusion 5)  apparent KD of MS2 coat protein       619
1  AAGGCCUGAGGAUAUCAGAGUCUAAACAUGAGGAUCACCCAUGUGAACCUGGUCAGUCUGUGAGAAGGUAGUGCUC [Tequat] (puzzle: Exclusion 5)  apparent KD of MS2 coat protein      39.5

Request: For MS2 coat protein, provide apparent KD of MS2 coat protein of GGUUGGCGAGGAUAUACAUGAGGAUCACCCAUGUGAGGGAAAAAAGUGAGAACGAAAAGUAGAAGGCGCUGACG [salish99_ex3_r3_063] (puzzle: Exclusion 3) please.
Response: 10.5

----------
// reported apparent KD of K4 kissing-loop reporter for each item listed
- Test system: K4 kissing-loop RNA reporter
- ASSAY NOTES: apparent KD of K4 kissing-loop reporter; higher = weaker reporter binding
- RUN CONDITIONS: Eterna round: R107; input ligand: FMN 200 uM
Write the number in nM without appending the unit.

Request: What value of apparent KD of K4 kissing-loop reporter has been recorded for this entry: GCGCGGGAGUGAUGUUCCAAGUGGUGUUAACGAGGACCGGUACGGCCGCCACUCGAUACGGCCGGGCCGUAGGAUAAACUGGCGC [Same State - Tryptophan A (Freestyle 14)]
Response: 405

Request: What value of apparent KD of K4 kissing-loop reporter has been recorded for this entry: UUCAGGUGUUCGGCCGCCACUCCAGUGAUGUUGGAGUGGCUUCACAAGGGCCAGGACAAUGUAGGGAGGACCGGGAAUAUCGCAG [Atvebeance]
Response: 143

Request: What value of apparent KD of K4 kissing-loop reporter has been recorded for this entry: CAACAGCUUACGGCCGCCACUCCUUUAUAUGGUGCGCACCGUUGAGCUCUAGUGAUGUUGGUGCCGAGGACCGGGUAGGAAAGUA [theeternabot_sameState_KL_Trp_B_31]
Response: 468

Request: What value of apparent KD of K4 kissing-loop reporter has been recorded for this entry: CGCAAAUCGUCGGCCGCCACUGCAUUUGAACGCUAAUUGUCUCUGCGCGGAGUGAUGUUCUGUGCCAGGACCGGGACGGAUUUCG [theeternabot_exclusion_KL_Trp_B_21]
Response: 446

Request: What value of apparent KD of K4 kissing-loop reporter has been recorded for this entry: UGAUACCAGACGGCCGCCACUCCUGCAGUCAAAGACUGCAAGGAAAUAUUCGUCCAGUGAUGUUGGAGGACCGGGUCUGGUAUCU [TrypBX 9 #SwitchBubble #Palindromic #StaticStem]
Response: 921

----------
- Test system: MS2 coat protein
- ASSAY NOTES: apparent KD of MS2 coat protein; designed switch direction (-1 OFF switch, 1 ON switch): -1; higher = weaker reporter binding
- RUN CONDITIONS: input ligand: none
OBSERVATION TYPE: apparent KD of MS2 coat protein
Please format your answer as a value with the unit trailing.

Recorded results for 3 sequences are shown here.
SEQUENCE INPUT	TARGET OR TEST SYSTEM	apparent KD of MS2 coat protein
GCAGCAUAGUCGGAAACGACAGAACAUGAGGAUCACCCAUGUUAGGAUAUGGUCUGGAUUACAGGCCAGAAGGGACAAAGCUGC [Eli exng3 - 009] (Eterna round: R96, puzzle: Exclusion NG 3)	MS2 coat protein	39.9 nM
AUAAAUCAUGUAGGAUAUGCGUGGCAAAGCUAUGCAGAAGGACAUGAGGAUCACCCAUGUUCUUCCGUCUGCGUACAGACGGAA [Mat - Exclusion NG 1 - Mod of JL - D40] (Eterna round: R96, puzzle: Exclusion NG 1)	MS2 coat protein	37.3 nM
UUGUACAUAGGAUAUAGUUGUUUGUACAUGAGGAUCACCCAUGUUAUGUAUGUUUUGCUUCUAGAAGGAUGUUGUU [JR_E5_Sub004] (Eterna round: R96, puzzle: Exclusion 5)	MS2 coat protein	34.5 nM

Now examine the next entry.
Request: For MS2 coat protein, provide apparent KD of MS2 coat protein of GUACUGACAGGAUAUACAUGAGGAUCACCCAUGUCCUUAAGCUGACAAAAGUCAGCAAGUAGAAGGGUCUGUAC [Omei Ex3 Model Bachelor's Dilema v1] (Eterna round: R97, puzzle: Exclusion 3) please.
Response: 79.4 nM

----------
- System: K4 kissing-loop RNA reporter;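 note: bound reporter read as fluorescence of individual clusters on recovered sequencing chips by microscopy, with normalized cluster intensities fitted with a binding model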
- ASSAY NOTES: apparent KD of K4 kissing-loop reporter; higher = weaker reporter binding
- RUN CONDITIONS: Eterna round: R107; input ligand: arginine 13.2 mM
OBSERVATION TYPE: apparent KD of K4 kissing-loop reporter (nM)
Write the number in nM without appending the unit.

Request: What value of apparent KD of K4 kissing-loop reporter has been recorded for this entry: `UAACAGGCCCUCACCGUCUUAUUUACAGACCGAGGACCGGUACGGCCGCCACUCGUGAAGUGAUGUUUCAAACAAGCGGUAGGAU`
Response: 467

----------
- System: MS2 coat protein
- ASSAY NOTES: apparent KD of MS2 coat protein; designed switch direction (-1 OFF switch, 1 ON switch): -1; higher = weaker reporter binding
- RUN CONDITIONS: Eterna round: R95; input ligand: microRNA oligo, concentration not stated
// reported apparent KD of MS2 coat protein for each item listed
Please format your answer as a value with the unit trailing.

Request: What value of apparent KD of MS2 coat protein has been recorded for this entry: CUGGUCCGAGGAUAUAUUAUGUGAAACAUGAGGAUCACCCAUGUAAUAUGAUGGAAAUAAAUAGAAGGCGGACUAG [Mat - Exclusion 5 - JL mod - D32] (puzzle: Exclusion 5)
Response: 34.5 nM

Request: What value of apparent KD of MS2 coat protein has been recorded for this entry: GACCCUAGGGUCAGACGCACAAGCUUUUUGCUCGUUUUAACAUGAGGAUCACCCAUGUCUAGUGGAUCUGAUCGGGC [Ongege] (puzzle: Sensor v3, turn-off variant 2)
Response: 151 nM

Request: What value of apparent KD of MS2 coat protein has been recorded for this entry: UUACGGCGGAUCGUGGCUUUUUGCUCGUCUUGUGCUACAACAUGAGGAUCACCCAUGUAGAGGUGAUCCGUUGUAUU [Grok-var2-19 mod JAL] (puzzle: Sensor v3, turn-off variant 2)
Response: 22.3 nM

----------
- Tested on: MS2 coat protein
- ASSAY NOTES: apparent KD of MS2 coat protein; higher = weaker reporter binding
- RUN CONDITIONS: Eterna round: R107; input ligand: arginine 13.2 mM
OBSERVATION TYPE: apparent KD of MS2 coat protein (nM)
Write the number in nM without appending the unit.

SEQUENCE INPUT	apparent KD of MS2 coat protein / nM
UUCAGCUAGUCGGCCGCCACUAUCUGAGGAUCACCCAGGUAAUCCUAACACUGCUUCGGCAGUGGUAGGACCGGGACUAGCUGAG	8.18

Request: What value of apparent KD of MS2 coat protein has been recorded for this entry: AGUAGACACGCGGCCGCCACUUGAGGAUCACCCAGGUGGUGUGUACUUGAAAACAAGUGCACAUCAAGGACCGGGCGUGUCUACA [Omei Tryp B SS D v2]
Response: 12.9

Request: What value of apparent KD of MS2 coat protein has been recorded for this entry: `UGUAUGGACUGAAGGAGCGGGUAAUAAACCUGAGGAUCACCCAGGUAAUAGGCGAAAGCCACCCAGGUAGGUCGCAGUCCAUACU`
Response: 9.98

Request: What value of apparent KD of MS2 coat protein has been recorded for this entry: GGGUGUGAUCCGGAUACCAGCGAACAUGAGGAUCACCCAUGUGACCUGAGAUCGGCUCUACGCCCUUGGCAGCCGCGGUCGCAGG [Same State Theophylline B GF13]
Response: 23

Request: What value of apparent KD of MS2 coat protein has been recorded for this entry: AACAUGAGGAUCACCCAUGUCCUCGUGUACCGAGGACCGGUACGGCCGCCACUCGGUUCUCGCGAGGAUGGUCAAAGACUAUCCA [Omei Trp A SS B v4]
Response: 202

Request: What value of apparent KD of MS2 coat protein has been recorded for this entry: UAUAGUACCAGACAUGAGGAUCACCCAUGUCGAGGACCGGUACGGCCGCCACUCGGCAGUUUGCGUCCUCAGGUACUCCGGGUCA [Larisotexe]
Response: 17.6

Request: What value of apparent KD of MS2 coat protein has been recorded for this entry: GGUCUCGAGAGCGAUACCAGCUUGAUCGUACUGGCCUGGUACAUGAGGAUCACCCAUGUAAGCCCUUGGCAGCGCUCUCGAGACC [#1 Exclusion - Theophylline B Attempt #7 (HarryS)]
Response: 9.53

Request: What value of apparent KD of MS2 coat protein has been recorded for this entry: AGAUUCGACACGGCCGCCACUCGAGACGGAUUUCCGAGUGUCGAACAUGAGGAUCACCCAUGUCCGAGGACCGGGUGUUGAGUCU [XTryp B #10]
Response: 24.3

Request: What value of apparent KD of MS2 coat protein has been recorded for this entry: UAUCCACAUGAGGAUCACCCAUGUAGGGAAGGAGCGGUGAUUUCACCAGGUAGGUCGCCUUGCUCAGGGUUGCCGGUGGAAUCGU [Exclusion - Arginine A (Freestyle 34)]
Response: 24.9

Request: What value of apparent KD of MS2 coat protein has been recorded for this entry: ACAUGAAGAACAGCGGUGGGCGCGCUCGAUACCAGUAUUUUAAAUUACCCUUGGCAGCGACAUGAGGAUCACCCAUGUGAGAUGA [XTheo A #5]
Response: 22.5

Request: What value of apparent KD of MS2 coat protein has been recorded for this entry: ACAUGAGGAUCACCCAUGUUCCUCGCCGAUACCAGUGAAGAAGAACGCCCUUGGCAGCGGAAAGAGUAUUUUGGAGAUGAGGUAC [6.X]
Response: 72.5

Request: What value of apparent KD of MS2 coat protein has been recorded for this entry: ACAUGAGGAUCACCCAUGUAAUAAUCAGAAGGAGCGUGGAAUAACACAGGUAGGUCGCUGAUGUUUGGUUAAAUGUAAUCGUGUA [JR_SSArginiA_Sub001]
Response: 13
